Data provenance: PubChem BioAssay AID1919009

Provide the reported pIC50 of each item.
Tested on: K24384-001-R-PDC complex spheroid growth
Experiment: Anticancer human tumor K24384-001-R-PDC patient-derived pancreatic adenocarcinoma cell line growth inhibition [AhR]
Conditions: curve of first compound; second compound 0.1 µM
Excerpt: Multicellular complex tumor spheroid response to aryl hydrocarbon receptor antagonists in combination with a variety of drugs and investigational agents in selected tumor cell lines […] Compounds. […] If the clinical Cmax for an agent had not been determined, the highest concentration tested was 10 microM (Table 1). […]
Give bare numbers, as −log10 of the molar value.

Some compounds with known pIC50 results, for comparison:
[[record]]
compound = "CC1COCCN1c1cc(-c2ccnn2C)c2ccnc(-c3ccn[nH]3)c2n1 (centres undefined) + Cc1ccccc1N=Nc1ccc(NC(=O)c2ccnn2C)c(C)c1"
experimental_target = "K24384-001-R-PDC complex spheroid growth"
parameter = "pIC50"
result_number = 6.99

[[record]]
compound = "COc1cc(C2c3cc4c(cc3C(OC3OC5COC(C)OC5C(O)C3O)C3COC(=O)C23)OCO4)cc(OC)c1O (centres undefined) + Cc1cncc(-c2nc(NCCc3c[nH]c4ccccc34)c3ncn(C(C)C)c3n2)c1"
experimental_target = "K24384-001-R-PDC complex spheroid growth"
parameter = "pIC50"
result_number = 6.25

[[record]]
compound = "O=C(C=Cc1cccc(S(=O)(=O)Nc2ccccc2)c1)NO + Cc1ccccc1N=Nc1ccc(NC(=O)c2ccnn2C)c(C)c1"
experimental_target = "K24384-001-R-PDC complex spheroid growth"
parameter = "pIC50"
result_number = 5.63

[[record]]
compound = "CC[C@@]1(O)C(=O)OCc2c1cc1n(c2=O)Cc2cc3c(CN(C)C)c(O)ccc3nc2-1 + Cc1cncc(-c2nc(NCCc3c[nH]c4ccccc34)c3ncn(C(C)C)c3n2)c1"
experimental_target = "K24384-001-R-PDC complex spheroid growth"
parameter = "pIC50"
result_number = 7.37

[[record]]
compound = "CC(C)CC(NC(=O)C(Cc1ccccc1)NC(=O)c1cnccn1)B(O)O (centres undefined) + Cc1cncc(-c2nc(NCCc3c[nH]c4ccccc34)c3ncn(C(C)C)c3n2)c1"
experimental_target = "K24384-001-R-PDC complex spheroid growth"
parameter = "pIC50"
result_number = 8.12


Look at each compound and report its pIC50.
1. COc1cccc2c1C(=O)c1c(O)c3c(c(O)c1C2=O)CC(O)(C(=O)CO)CC3OC1CC(N)C(O)C(C)O1 (centres undefined) + Cc1ccccc1N=Nc1ccc(NC(=O)c2ccnn2C)c(C)c1
2. Nc1ccccc1NC(=O)c1ccc(CNC(=O)OCc2cccnc2)cc1 + Cc1cncc(-c2nc(NCCc3c[nH]c4ccccc34)c3ncn(C(C)C)c3n2)c1
3. COc1cc(C2c3cc4c(cc3C(OC3OC5COC(C)OC5C(O)C3O)C3COC(=O)C23)OCO4)cc(OC)c1O (centres undefined) + CC(CO)NC(=O)c1cc(-c2ccc(Cl)cc2)nn(-c2cnn(C)c2)c1=O

1: 7.16; 2: 5.76; 3: 5.77

Give pIC50 for each of the items listed below.
1. COc1cc(Nc2ncc3c(n2)-c2ccc(Cl)cc2C(c2c(F)cccc2OC)=NC3)ccc1C(=O)O + CC(CO)NC(=O)c1cc(-c2ccc(Cl)cc2)nn(-c2cnn(C)c2)c1=O
2. COc1cccc2c1C(=O)c1c(O)c3c(c(O)c1C2=O)CC(O)(C(=O)CO)CC3OC1CC(N)C(O)C(C)O1 (centres undefined) + Cc1cncc(-c2nc(NCCc3c[nH]c4ccccc34)c3ncn(C(C)C)c3n2)c1

1: 5.70; 2: 7.36

Parameters: items (list). Returns: pIC50 for each item.
1. COc1ccc([C@@H](O)c2cc(-c3ncnc4cc(N5CCOCC5)ccc34)c(F)cc2Cl)nn1 + CC(CO)NC(=O)c1cc(-c2ccc(Cl)cc2)nn(-c2cnn(C)c2)c1=O
2. CC1COCCN1c1cc(-c2ccnn2C)c2ccnc(-c3ccn[nH]3)c2n1 (centres undefined) + CC(CO)NC(=O)c1cc(-c2ccc(Cl)cc2)nn(-c2cnn(C)c2)c1=O
3. Nc1ccn(C2OC(CO)C(O)C2(F)F)c(=O)n1 (centres undefined) + Cc1cncc(-c2nc(NCCc3c[nH]c4ccccc34)c3ncn(C(C)C)c3n2)c1
4. CC1COCCN1c1cc(-c2ccnn2C)c2ccnc(-c3ccn[nH]3)c2n1 (centres undefined) + Cc1cncc(-c2nc(NCCc3c[nH]c4ccccc34)c3ncn(C(C)C)c3n2)c1
5. CC1COCCN1c1cc(C2(S(C)(=N)=O)CC2)nc(-c2ccnc3[nH]ccc23)n1 (centres undefined) + Cc1ccccc1N=Nc1ccc(NC(=O)c2ccnn2C)c(C)c1
6. Nc1ccccc1NC(=O)c1ccc(CNC(=O)OCc2cccnc2)cc1 + CC(CO)NC(=O)c1cc(-c2ccc(Cl)cc2)nn(-c2cnn(C)c2)c1=O
7. CCc1c2c(nc3ccc(O)cc13)-c1cc3c(c(=O)n1C2)COC(=O)[C@]3(O)CC + Cc1cncc(-c2nc(NCCc3c[nH]c4ccccc34)c3ncn(C(C)C)c3n2)c1

1: 5.14; 2: 6.94; 3: 6.29; 4: 7.13; 5: 5.68; 6: 5.71; 7: 8.53
